Reported %Inh by item:
test system: PRKCQ; conditions: concentration: 1 μM, replicates: in singlicate; n = 1;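 further: KINOMEscan kinase panel screen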

Worked cases, answers included:
CC(C)N1CCC(n2cnc(-c3ccc(F)cc3)c2-c2ccnc(N)n2)CC1 = 0%
O=C(NCCCN1CCCC1=O)c1cnc(NCc2cc(Cl)ccc2Cl)nc1NC1CCNCC1 = 0%
COc1cc2c(Nc3cccc(NC(=O)c4ccccc4)c3)ncnc2cc1OCCCN1CCOCC1 = 22%

Next item in the queue.
Problem: Give %Inh; test system PRKCQ; compound Cn1ccc2ncnc(Oc3ccc(NC(=O)Nc4cccnc4)c(Cl)c3)c21
Solution: 28%

* * *

Reported %Inh by item:
test system: CSF1R-autoinhibited; details: concentration: 1 μM, replicates: in singlicate; n = 1
Give just the numeric value; % need not be written.

Worked cases, answers included:
Cc1cccc(-c2nc(Nc3ccc4[nH]nnc4c3)c3ccccc3n2)n1 [GW867587] = 0
FC(F)(F)c1cc(Nc2nccc(-c3c(-c4ccc(Cl)cc4)nn4ncccc34)n2)ccc1Cl [GW829351] = 0

Problem: Query %Inh for Nc1nc(-c2ccccn2)c(-c2ccnc3ccccc23)s1 [GW548057]
Solution: 58

Problem: Query %Inh for COC(=O)c1c(-c2ccccc2)c2cc(Cl)ccc2c(=O)n1Cc1ccc(S(C)(=O)=O)cc1
Solution: 6

Problem: Query %Inh for Cl.c1ccc(Cn2ncc3cc(Nc4ncnc5ccccc45)ccc32)cc1 [GW273749]
Solution: 0

* * *

Reported %Inh by item:
system: RIPK2; settings: concentration: 1 μM, replicates: in singlicate; n = 1
Give just the numeric value; % need not be written.

Cc1cccc(-c2nc(Nc3ccc4[nH]nnc4c3)c3ccccc3n2)n1 = 0
CCC(CC)(CC)n1cnc2c(N)ncnc21 = 1
CC(=O)Nc1n[nH]c2ncc(-c3ccccc3)cc12 = 0
Fc1cccc(COc2ccc(Nc3ncnc4nn5ccccc5c34)cc2Cl)c1 = 0
O=C(NCCCN1CCCC1=O)c1cnc(NCc2cc(Cl)ccc2Cl)nc1NC1CCNCC1 = 0
Fc1cccc(COc2ccc(Nc3ncnc4sc(-c5ccc[nH]5)cc34)cc2Cl)c1 = 31

Next item in the queue.
Problem: Query %Inh for Nc1nc(-c2ccc3c(N)n[nH]c3c2)cc(N2CCC[C@@H](C(=O)Nc3ccccc3)C2)n1.O=C(O)C(F)(F)F.O=C(O)C(F)(F)F
Solution: 5

* * *

system: RSK2(Kin.Dom.1-N-terminal); construct: gene RPS6KA3; conditions: concentration: 1 μM, replicates: in singlicate; n = 1
Reported %Inh by item:
Give just the numeric value; % need not be written.

Worked cases, answers included:
CCc1nc(-c2cccc(N(C)S(=O)(=O)c3ccccc3)c2)c(-c2ccnc(Nc3ccc(N4CCN(C(C)=O)CC4)nc3)n2)s1 [GSK1645895] = 0
Cc1ccc(NC(=O)c2cccc(C#N)c2)cc1-c1ccc(C(=O)Nc2ccncc2)cc1 [GSK1398463] = 0
Clc1cc(Nc2ncnc3cc[nH]c23)ccc1OCc1ccccn1 = 10
COC(=O)c1c(-c2ccccc2)c2cc(Cl)ccc2c(=O)n1Cc1ccc(S(C)(=O)=O)cc1 = 5
CSc1ccc(NC2=C(c3ccccc3Cl)C(=O)NC2=O)cc1 [SB-342411] = 0

Next item in the queue.
Problem: Query %Inh for COc1ccc(NC(=O)c2ccc(-c3cc(-c4nnc(C)o4)ccc3C)cc2)cc1 [GW595885]
Solution: 0

* * *

test system: YANK3; construct: gene STK32C; conditions: concentration: 1 μM, replicates: in singlicate; n = 1
Reported %Inh by item:
Give just the numeric value; % need not be written.

Worked cases, answers included:
Cl.O=S(=O)(c1cccc(F)c1)c1ccc(Nc2ncnc3cc(Br)sc23)cc1Cl = 0
Clc1ccc(-c2cc(-c3c[nH]nc3-c3ccccn3)ccn2)cc1 = 0

Problem: Query %Inh for Nc1nc(-c2ccc3c(N)n[nH]c3c2)cc(N2CCCCC2)n1
Solution: 0

* * *

system: JNK2; construct: gene MAPK9; conditions: concentration: 1 μM, replicates: in singlicate; n = 1
Reported %Inh by item:
Give just the numeric value; % need not be written.

Clc1cccc(-c2nc(Nc3ccncc3)c3ccccc3n2)c1 [GW873004] = 0
CC(C)(C)OC(=O)NC1CCCN(c2cc(-c3ccc4c(N)n[nH]c4c3)nc(N)n2)C1 (stereo not drawn) [GSK2286096] = 21

Problem: Query %Inh for Cl.O=S(=O)(c1cccc(F)c1)c1ccc(Nc2ncnc3cc(Br)sc23)cc1Cl [GSK306886]
Solution: 7

* * *

tested on: EPHA5; settings: concentration: 1 μM, replicates: in singlicate; n = 1
Reported %Inh by item:
Give just the numeric value; % need not be written.

Worked cases, answers included:
Cl.c1ccc(Cn2ccc3cc(Nc4ncnc5ccccc45)ccc32)cc1 [GW275568] = 0
O=C(NCCCN1CCCC1=O)c1cnc(NCc2cc(Cl)ccc2Cl)nc1NC1CCNCC1 = 2
Fc1cccc(COc2ccc(Nc3ncnc4sc(-c5ccc[nH]5)cc34)cc2Cl)c1 [GW707818] = 0
Cc1ccc(NC(=O)c2cccc(C#N)c2)cc1-c1ccc(C(=O)Nc2ccncc2)cc1 [GSK1398463] = 0

Next item in the queue.
Problem: Query %Inh for CS(=O)(=O)CCNCc1nc(-c2ccc3ncnc(Nc4ccc(OCc5cccc(F)c5)c(Cl)c4)c3c2)cs1.Cl [GW583340]
Solution: 0

* * *

Reported %Inh by item:
system: NEK9; conditions: concentration: 1 μM, replicates: in singlicate; n = 1
Give just the numeric value; % need not be written.

Clc1cc(Nc2ncnc3cc[nH]c23)ccc1OCc1ccccn1 = 7
Cc1ccc(O)cc1Nc1cc(C(F)(F)F)nc2ccc(-c3ccncc3)cc12 = 42
Nc1nc(-c2cccnc2)c(-c2ccnc3ccccc23)s1 = 4
CCn1c(-c2ccncc2)nc2cnccc21 = 0
Nc1nc(-c2ccccn2)c(-c2ccnc3ccccc23)s1 = 0

Problem: Give %Inh; test system NEK9; molecule COc1ccc(-c2oc3ncnc(N)c3c2-c2ccc(OC)cc2)cc1
Solution: 19

Problem: Give %Inh; test system NEK9; molecule Fc1ccc(Nc2nccc(-c3c(-c4ccc(Cl)cc4)nn4ncccc34)n2)cc1F
Solution: 5

Problem: Give %Inh; test system NEK9; molecule Cl.c1ccc(Cn2ccc3cc(Nc4ncnc5ccccc45)ccc32)cc1
Solution: 24

Problem: Give %Inh; test system NEK9; molecule Fc1cccc(COc2ccc(Nc3ncnc4cc[nH]c34)cc2Cl)c1
Solution: 10

Problem: Give %Inh; test system NEK9; molecule Cn1ccc2ncnc(Nc3ccc(Oc4cccc(Cl)c4)c(Cl)c3)c21
Solution: 17

Problem: Give %Inh; test system NEK9; molecule COC(=O)c1c(-c2ccccc2)c2cc(Cl)ccc2c(=O)n1Cc1ccc(S(C)(=O)=O)cc1
Solution: 0

Problem: Give %Inh; test system NEK9; molecule Fc1cccc(COc2ccc(Nc3ncnc4sc(-c5ccc[nH]5)cc34)cc2Cl)c1
Solution: 17

Problem: Give %Inh; test system NEK9; molecule Clc1cccc(-c2nc(Nc3ccncc3)c3ccccc3n2)c1
Solution: 3

Problem: Give %Inh; test system NEK9; molecule OCCOCCn1ccc2ncnc(Nc3ccc(Oc4cccc(Cl)c4)c(Cl)c3)c21
Solution: 0

Problem: Give %Inh; test system NEK9; molecule CS(=O)(=O)CCNCc1nc(-c2ccc3ncnc(Nc4ccc(OCc5cccc(F)c5)c(Cl)c4)c3c2)cs1.Cl
Solution: 11

* * *

Reported %Inh by item:
test system: MST1R; details: concentration: 1 μM, replicates: in singlicate; n = 1
Give just the numeric value; % need not be written.

Worked cases, answers included:
CC(C)(C)c1ccc(-n2cnc3c(N)ncnc32)cc1 = 17
Clc1cc(Nc2ncnc3cc[nH]c23)ccc1OCc1ccccn1 = 37
COc1cc2c(Nc3cccc(NC(=O)c4ccccc4)c3)ncnc2cc1OCCCN1CCOCC1 = 0
Nc1nccc2scc(-c3ccc4c(c3)CCN4C(=O)Cc3cc(F)ccc3F)c12 = 35
CCn1c(-c2ccncc2)nc2cnccc21 = 27

Problem: Query %Inh for Clc1cccc(-c2nc(Nc3ccncc3)c3ccccc3n2)c1
Solution: 0

Problem: Query %Inh for O=C(CCO)NCCn1ccc2ncnc(Nc3ccc(Oc4cccc(C(F)(F)F)c4)c(Cl)c3)c21
Solution: 0

Problem: Query %Inh for N#Cc1ccc(Oc2ccc(Nc3ncnc4cc[nH]c34)cc2Cl)cc1
Solution: 11

Problem: Query %Inh for CCc1nc(-c2cccc(C)c2)c(-c2ccnc(NC(=O)c3ccccc3)c2)s1
Solution: 32

Problem: Query %Inh for COc1ccc(-c2oc3ncnc(N)c3c2-c2ccc(OC)cc2)cc1
Solution: 46

* * *

Reported %Inh by item:
test system: ULK3; settings: concentration: 1 μM, replicates: in singlicate; n = 1
Give just the numeric value; % need not be written.

Worked cases, answers included:
CNc1nccc(-c2c(-c3ccc(F)cc3)ncn2CCCN2CCOCC2)n1 = 17
NC(=O)c1sc(-n2cnc3ccccc32)cc1OCc1ccccc1F = 9
Clc1cc(Nc2ncnc3cc[nH]c23)ccc1OCc1ccccn1 = 21

Problem: Query %Inh for CC(=O)Nc1n[nH]c2ncc(-c3ccccc3)cc12
Solution: 30

Problem: Query %Inh for Nc1nccc2scc(-c3ccc4c(c3)CCN4C(=O)Cc3cc(F)ccc3F)c12
Solution: 6

Problem: Query %Inh for COc1ccc(-c2oc3ncnc(N)c3c2-c2ccc(OC)cc2)cc1
Solution: 39

Problem: Query %Inh for Clc1ccc(-c2cc(-c3c[nH]nc3-c3ccccn3)ccn2)cc1
Solution: 1

Problem: Query %Inh for Cc1cc(N2CCC(NS(=O)(=O)c3ccc(F)cc3)CC2)nc(Nc2cccc(C#N)c2)n1.O=C(O)C(F)(F)F
Solution: 4

Problem: Query %Inh for Nc1n[nH]c2nnc(-c3ccccc3)cc12
Solution: 10

Problem: Query %Inh for O=C(Nc1ccccc1F)NC1CCN(c2ccnc(Nc3ccc(F)cc3)n2)C1 (centres unmarked)
Solution: 8

Problem: Query %Inh for N#Cc1ccc(Oc2ccc(Nc3ncnc4cc[nH]c34)cc2Cl)cc1
Solution: 30
